Test system: SR
Test: NCI tumour cell line growth inhibition, 48 h
Calls of active or inactive are those of the source. Rule as the data show it: active = GI50 up to about 1.1 µM and inactive = higher.
In this section we review reported GI50 values for a set of compounds.

# compound, GI50
measured = [
    ("N#Cc1c(N)nc(S)c(C#N)c1-c1ccccc1", "> 100 µM (inactive)"),
    ("CC(C)(C)NC(=O)/C(=C\\Sc1ccccc1)c1ccccc1", "46.6 µM (inactive)"),
    ("C/C(=C\\c1ccccc1)C(=O)NCc1ccc(C(=O)NCCc2c[nH]c3ccccc23)cc1", "> 100 µM (inactive)"),
    ("C1=N\\CCN2CCN(CC/N=C\\c3ccccc3OCc3cccc(n3)COc3ccccc3/1)CC2", "1.71 µM (inactive)"),
    ("Cc1ncc([N+](=O)[O-])n1CCNC(=O)CCCCCn1ccnc1[N+](=O)[O-]", "> 100 µM (inactive)"),
    ("Cc1cc(O)nc(NN2C(Cl)C(=O)C2c2cccc(Cl)c2)n1 (stereo unspecified)", "16 µM (inactive)"),
    ("CN1N(c2ccccc2)C(=O)C2=NC=C(C#N)C(=N)C21C (stereo unspecified)", "19.8 µM (inactive)"),
    ("COc1cc2cccc(/N=C\\c3ccccc3Cl)c2cc1OC", "3.94 µM (inactive)"),
    ("O=C1NC2OC(CO)C(O)C(O1)C2O (stereo unspecified)", "> 100 µM (inactive)"),
    ("CCOC(=O)c1[nH]c2cc(OC)c(OC)cc2c1CN(C)C", "> 100 µM (inactive)"),
    ("COc1ccc(CNC(=O)[C@H](Cc2ccc(O)cn2)NC(C)=O)cc1", "> 100 µM (inactive)"),
]

====

System: KM12
Assay: NCI tumour cell line growth inhibition, 48 h
Calls of active or inactive are those of the source. No stated cut-off is given here; in the data, active = GI50 up to about 1.1 µM and inactive = higher.

# compound, GI50
data = [
    ("CC(=O)OCC1OC(N2C(c3ccccc3)=CC(c3ccccc3)C(C#N)=C2S)C(OC(C)=O)C(OC(C)=O)C1OC(C)=O (stereo not given)", "15.7 µM (inactive)"),
    ("N#Cc1nc(C2OC(COC(=O)c3ccccc3)C(OC(=O)c3ccccc3)C2OC(=O)c2ccccc2)oc1N (stereo not given)", "18.3 µM (inactive)"),
    ("Cc1cnc2[nH]c(-c3cccc(F)c3)cc(=O)c2c1", "0.0327 µM (active)"),
    ("COC(=O)C(Cc1ccc2c(c1)OCO2)(NC(=O)c1ccccc1)P(=O)(OC)OC (stereo not given)", "> 100 µM (inactive)"),
    ("Clc1ccc(-c2ccc(-c3nnc(CCc4nnc(-c5ccc(-c6ccc(Cl)cc6)o5)o4)o3)o2)cc1", "> 100 µM (inactive)"),
    ("CCN(CC)c1cccc2c1C1(O)CCC3(CC21)OCCCCO3 (stereo not given)", "57.8 µM (inactive)"),
    ("O=C(Nc1cccc(C(F)(F)F)c1)c1cc(Br)cc(Br)c1O", "3.28 µM (inactive)"),
    ("S=C(/N=c1/sc(Nc2ccccc2)nc2sc3c(c12)CCCC3)Nc1ccccc1", "> 62.5 µM (inactive)"),
    ("C[N+](C)([O-])Cc1cccc(NC(=O)c2ccc(C(=O)Nc3cccc(C[N+](C)(C)[O-])c3)cc2)c1", "> 100 µM (inactive)"),
    ("Cc1ccc(S(=O)(=O)OC2CS[S+]([O-])CC2OS(=O)(=O)c2ccc(C)cc2)cc1 (stereo not given)", "17.3 µM (inactive)"),
]

Numbers sourced from ChEMBL document CHEMBL1201862.
